# assayed.target: Gal-1 (Homo sapiens, UniProt P09382)
# Construct: made in house; host or cells: E. coli BL21(DE3)
# Sequence (P09382 whole entry): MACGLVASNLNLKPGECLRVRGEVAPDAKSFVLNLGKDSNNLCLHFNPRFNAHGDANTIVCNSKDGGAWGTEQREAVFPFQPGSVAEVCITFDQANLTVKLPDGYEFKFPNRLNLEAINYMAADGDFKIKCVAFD
# assay.comment: Pull-down assay with immobilized protein and LSM libraries
# Assay type: binding
# measurement.conditions: H12 library; 1:1 binding assumed; read-out: Surface mapping KD (apparent)
Entries and their pKd
Would you please state pKd, meaning minus log10 of the concentration in mol/L, as a bare number?

{"columns": ["smiles.notation", "pKd"],
 "data": [
  ["NCCCC[C@@H](CC(=O)N[C@H]1CCC[C@@H]1C(=O)N[C@H]1CCC[C@@H]1C(=O)N[C@@H](CO)CC(=O)N[C@H]1CCC[C@@H]1C(=O)N[C@H]1CCC[C@@H]1C(N)=O)NC(=O)[C@H]1CCC[C@@H]1NC(=O)[C@H]1CCC[C@@H]1N", 3.53],
  ["CSCC[C@@H](CC(=O)N[C@H]1CCC[C@@H]1C(=O)N[C@H]1CCC[C@@H]1C(=O)N[C@@H](CCCNC(=N)N)CC(=O)N[C@H]1CCC[C@@H]1C(=O)N[C@H]1CCC[C@@H]1C(N)=O)NC(=O)[C@H]1CCC[C@@H]1NC(=O)[C@H]1CCC[C@@H]1N", 3.73],
  ["C[C@@H](CC(=O)N[C@H]1CCC[C@@H]1C(=O)N[C@H]1CCC[C@@H]1C(N)=O)NC(=O)[C@H]1CCC[C@@H]1NC(=O)[C@H]1CCC[C@@H]1NC(=O)C[C@H](Cc1ccccc1)NC(=O)[C@H]1CCC[C@@H]1NC(=O)[C@H]1CCC[C@@H]1N", 3.47]
]}

Briefly, pKd measured for CSCC[C@@H](CC(=O)N[C@H]1CCC[C@@H]1C(=O)N[C@H]1CCC[C@@H]1C(N)=O)NC(=O)[C@H]1CCC[C@@H]1NC(=O)[C@H]1CCC[C@@H]1NC(=O)C[C@H](CCSC)NC(=O)[C@H]1CCC[C@@H]1NC(=O)[C@H]1CCC[C@@H]1N : 3.44

###

Listed compounds paired with reported log10 Kd
# assayed.target: CaM (Bos taurus, UniProt P62157)
# Construct: made in house; host or cells: E. coli BL21 (DE3)
# assay.comment: Pull-down assay with immobilized protein and LSM libraries
# Assay type: binding, bovine
# measurement.conditions: H14 library; 1:2 stoichiometry assumed; read-out: Surface mapping KD (apparent)
Parameter value (number): base-10 log of Kd in µM.

Solved entries:
{"columns": ["smiles.notation", "assayed.target", "log10 Kd"],
 "data": [
  ["C[C@@H](O)[C@@H](CC(=O)N[C@H]1CCCC[C@@H]1C(=O)N[C@H]1CCCC[C@@H]1C(=O)N[C@@H](CCC(N)=O)CC(=O)N[C@H]1CCCC[C@@H]1C(N)=O)NC(=O)[C@H]1CCCC[C@@H]1N", "CaM (Bos taurus, UniProt P62157)", 2.19],
  ["C[C@@H](CC(=O)N[C@H]1CCCC[C@@H]1C(N)=O)NC(=O)[C@H]1CCCC[C@@H]1NC(=O)[C@H]1CCCC[C@@H]1NC(=O)C[C@H](CCCCN)NC(=O)[C@H]1CCCC[C@@H]1N", "CaM (Bos taurus, UniProt P62157)", 2.50],
  ["NCCCC[C@@H](CC(=O)N[C@H]1CCCC[C@@H]1C(N)=O)NC(=O)[C@H]1CCCC[C@@H]1NC(=O)[C@H]1CCCC[C@@H]1NC(=O)C[C@H](Cc1ccc(O)cc1)NC(=O)[C@H]1CCCC[C@@H]1N", "CaM (Bos taurus, UniProt P62157)", 1.23],
  ["CC(C)C[C@@H](CC(=O)N[C@H]1CCCC[C@@H]1C(=O)N[C@H]1CCCC[C@@H]1C(=O)N[C@H](CC(=O)N[C@H]1CCCC[C@@H]1C(N)=O)Cc1ccc(O)cc1)NC(=O)[C@H]1CCCC[C@@H]1N", "CaM (Bos taurus, UniProt P62157)", 1.00],
  ["CC(C)[C@@H](CC(=O)N[C@H]1CCCC[C@@H]1C(N)=O)NC(=O)[C@H]1CCCC[C@@H]1NC(=O)[C@H]1CCCC[C@@H]1NC(=O)C[C@H](CCCCN)NC(=O)[C@H]1CCCC[C@@H]1N", "CaM (Bos taurus, UniProt P62157)", 1.70],
  ["CC[C@H](C)[C@@H](CC(=O)N[C@H]1CCCC[C@@H]1C(N)=O)NC(=O)[C@H]1CCCC[C@@H]1NC(=O)[C@H]1CCCC[C@@H]1NC(=O)C[C@@H](NC(=O)[C@H]1CCCC[C@@H]1N)[C@@H](C)CC", "CaM (Bos taurus, UniProt P62157)", 0.95]
]}

For reference, reported log10 Kd for CSCC[C@@H](CC(=O)N[C@H]1CCCC[C@@H]1C(=O)N[C@H]1CCCC[C@@H]1C(=O)N[C@H](CC(=O)N[C@H]1CCCC[C@@H]1C(N)=O)CC(C)C)NC(=O)[C@H]1CCCC[C@@H]1N stands at 0.48

Given item CC(C)C[C@@H](CC(=O)N[C@H]1CCCC[C@@H]1C(=O)N[C@H]1CCCC[C@@H]1C(=O)N[C@@H](C)CC(=O)N[C@H]1CCCC[C@@H]1C(N)=O)NC(=O)[C@H]1CCCC[C@@H]1N , the value recorded as its log10 Kd is 0.90

Query CSCC[C@@H](CC(=O)N[C@H]1CCCC[C@@H]1C(N)=O)NC(=O)[C@H]1CCCC[C@@H]1NC(=O)[C@H]1CCCC[C@@H]1NC(=O)C[C@H](CO)NC(=O)[C@H]1CCCC[C@@H]1N yields log10 Kd of 1.63

Briefly, log10 Kd measured for CSCC[C@@H](CC(=O)N[C@H]1CCCC[C@@H]1C(=O)N[C@H]1CCCC[C@@H]1C(=O)N[C@H](CC(=O)N[C@H]1CCCC[C@@H]1C(N)=O)C(C)C)NC(=O)[C@H]1CCCC[C@@H]1N : 0.48

// CC(C)[C@@H](CC(=O)N[C@H]1CCCC[C@@H]1C(N)=O)NC(=O)[C@H]1CCCC[C@@H]1NC(=O)[C@H]1CCCC[C@@H]1NC(=O)C[C@H](Cc1c[nH]c2ccccc12)NC(=O)[C@H]1CCCC[C@@H]1N : log10 Kd value = 0.30

log10 Kd in this record for NC(=O)[C@H]1CCCC[C@@H]1NC(=O)C[C@H](Cc1c[nH]c2ccccc12)NC(=O)[C@H]1CCCC[C@@H]1NC(=O)[C@H]1CCCC[C@@H]1NC(=O)C[C@H](Cc1ccc(O)cc1)NC(=O)[C@H]1CCCC[C@@H]1N : 0.30

Noted for CSCC[C@@H](CC(=O)N[C@H]1CCCC[C@@H]1C(=O)N[C@H]1CCCC[C@@H]1C(=O)N[C@@H](CO)CC(=O)N[C@H]1CCCC[C@@H]1C(N)=O)NC(=O)[C@H]1CCCC[C@@H]1N : its log10 Kd reads 2.03

Entry C[C@@H](O)[C@@H](CC(=O)N[C@H]1CCCC[C@@H]1C(=O)N[C@H]1CCCC[C@@H]1C(=O)N[C@@H](CCCCN)CC(=O)N[C@H]1CCCC[C@@H]1C(N)=O)NC(=O)[C@H]1CCCC[C@@H]1N , log10 Kd reported as 1.94

Measured log10 Kd, NC(=O)[C@H]1CCCC[C@@H]1NC(=O)C[C@H](Cc1ccc(O)cc1)NC(=O)[C@H]1CCCC[C@@H]1NC(=O)[C@H]1CCCC[C@@H]1NC(=O)C[C@H](Cc1ccccc1)NC(=O)[C@H]1CCCC[C@@H]1N : 0.48

The compound listed as CC[C@H](C)[C@@H](CC(=O)N[C@H]1CCCC[C@@H]1C(=O)N[C@H]1CCCC[C@@H]1C(=O)N[C@H](CC(=O)N[C@H]1CCCC[C@@H]1C(N)=O)Cc1c[nH]c2ccccc12)NC(=O)[C@H]1CCCC[C@@H]1N shows log10 Kd equal to -0.40

Entry NC(=O)[C@H]1CCCC[C@@H]1NC(=O)C[C@H](CCC(=O)O)NC(=O)[C@H]1CCCC[C@@H]1NC(=O)[C@H]1CCCC[C@@H]1NC(=O)C[C@H](Cc1c[nH]c2ccccc12)NC(=O)[C@H]1CCCC[C@@H]1N ; log10 Kd = 2.28

So, CC(C)C[C@@H](CC(=O)N[C@H]1CCCC[C@@H]1C(=O)N[C@H]1CCCC[C@@H]1C(=O)N[C@H](CC(=O)N[C@H]1CCCC[C@@H]1C(N)=O)Cc1c[nH]c2ccccc12)NC(=O)[C@H]1CCCC[C@@H]1N ? Its log10 Kd was -0.40

###

# assayed.target: Gal-1 (Homo sapiens, UniProt P09382)
# Construct: made in house; host or cells: E. coli BL21(DE3)
# assay.comment: Pull-down assay with immobilized protein and LSM libraries
# Assay type: binding
# measurement.conditions: H12 library; 1:1 binding assumed; read-out: Surface mapping KD (apparent)
// reported pKd per item
Please report pKd as the negative decimal logarithm of the molar concentration, giving only the number.

Known pKd results, listed for orientation:
{"columns": ["smiles.notation", "measured.result"],
 "data": [
  ["NC(=O)[C@H]1CCC[C@@H]1NC(=O)[C@H]1CCC[C@@H]1NC(=O)C[C@H](Cc1ccc(O)cc1)NC(=O)[C@H]1CCC[C@@H]1NC(=O)[C@H]1CCC[C@@H]1NC(=O)C[C@H](CC(=O)O)NC(=O)[C@H]1CCC[C@@H]1NC(=O)[C@H]1CCC[C@@H]1N", 3.69],
  ["CC(C)[C@@H](CC(=O)N[C@H]1CCC[C@@H]1C(=O)N[C@H]1CCC[C@@H]1C(=O)N[C@H](CC(=O)N[C@H]1CCC[C@@H]1C(=O)N[C@H]1CCC[C@@H]1C(N)=O)[C@@H](C)O)NC(=O)[C@H]1CCC[C@@H]1NC(=O)[C@H]1CCC[C@@H]1N", 3.36]
]}

In plain terms, NCCCC[C@@H](CC(=O)N[C@H]1CCC[C@@H]1C(=O)N[C@H]1CCC[C@@H]1C(N)=O)NC(=O)[C@H]1CCC[C@@H]1NC(=O)[C@H]1CCC[C@@H]1NC(=O)C[C@H](CC(=O)O)NC(=O)[C@H]1CCC[C@@H]1NC(=O)[C@H]1CCC[C@@H]1N has a documented pKd of 3.76

pKd in this record for NC(=O)C[C@@H](CC(=O)N[C@H]1CCC[C@@H]1C(=O)N[C@H]1CCC[C@@H]1C(N)=O)NC(=O)[C@H]1CCC[C@@H]1NC(=O)[C@H]1CCC[C@@H]1NC(=O)C[C@H](CC(=O)O)NC(=O)[C@H]1CCC[C@@H]1NC(=O)[C@H]1CCC[C@@H]1N : 3.65
